Biological target: human collagen type I, acid soluble, extracted from placenta (Sigma C7774) (human) (UniProt P02452)
Sequence (P02452 162-1218 limits assumed, chain 1 of 2): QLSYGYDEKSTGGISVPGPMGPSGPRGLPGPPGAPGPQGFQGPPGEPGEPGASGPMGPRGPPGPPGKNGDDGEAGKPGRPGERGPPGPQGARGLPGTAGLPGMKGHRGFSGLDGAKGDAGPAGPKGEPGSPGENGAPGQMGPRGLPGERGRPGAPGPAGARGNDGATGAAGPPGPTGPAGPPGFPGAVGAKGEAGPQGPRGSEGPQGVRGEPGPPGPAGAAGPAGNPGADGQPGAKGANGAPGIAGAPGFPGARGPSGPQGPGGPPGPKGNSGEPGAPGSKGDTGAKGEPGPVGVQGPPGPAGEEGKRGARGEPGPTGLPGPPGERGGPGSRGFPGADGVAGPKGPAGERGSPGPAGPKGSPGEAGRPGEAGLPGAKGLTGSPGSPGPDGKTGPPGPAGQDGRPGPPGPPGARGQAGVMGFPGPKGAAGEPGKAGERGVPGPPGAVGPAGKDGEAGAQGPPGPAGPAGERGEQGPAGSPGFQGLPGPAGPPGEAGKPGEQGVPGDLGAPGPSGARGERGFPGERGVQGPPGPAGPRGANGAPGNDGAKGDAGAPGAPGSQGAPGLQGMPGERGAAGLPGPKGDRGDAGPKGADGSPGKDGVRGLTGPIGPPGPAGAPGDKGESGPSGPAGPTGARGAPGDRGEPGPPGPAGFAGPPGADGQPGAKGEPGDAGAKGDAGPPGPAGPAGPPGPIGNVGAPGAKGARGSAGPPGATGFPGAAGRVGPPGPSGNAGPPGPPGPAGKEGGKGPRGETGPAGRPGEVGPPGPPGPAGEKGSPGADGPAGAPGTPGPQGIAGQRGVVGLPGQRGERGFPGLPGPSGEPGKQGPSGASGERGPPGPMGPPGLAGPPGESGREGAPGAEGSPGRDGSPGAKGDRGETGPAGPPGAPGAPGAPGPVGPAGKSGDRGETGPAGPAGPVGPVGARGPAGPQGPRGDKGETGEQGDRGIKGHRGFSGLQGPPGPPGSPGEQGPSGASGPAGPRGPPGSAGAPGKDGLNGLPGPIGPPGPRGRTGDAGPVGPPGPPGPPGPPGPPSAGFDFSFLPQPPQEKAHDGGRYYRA
Sequence (P08123 80-1119 limits assumed, chain 2 of 2, further chain): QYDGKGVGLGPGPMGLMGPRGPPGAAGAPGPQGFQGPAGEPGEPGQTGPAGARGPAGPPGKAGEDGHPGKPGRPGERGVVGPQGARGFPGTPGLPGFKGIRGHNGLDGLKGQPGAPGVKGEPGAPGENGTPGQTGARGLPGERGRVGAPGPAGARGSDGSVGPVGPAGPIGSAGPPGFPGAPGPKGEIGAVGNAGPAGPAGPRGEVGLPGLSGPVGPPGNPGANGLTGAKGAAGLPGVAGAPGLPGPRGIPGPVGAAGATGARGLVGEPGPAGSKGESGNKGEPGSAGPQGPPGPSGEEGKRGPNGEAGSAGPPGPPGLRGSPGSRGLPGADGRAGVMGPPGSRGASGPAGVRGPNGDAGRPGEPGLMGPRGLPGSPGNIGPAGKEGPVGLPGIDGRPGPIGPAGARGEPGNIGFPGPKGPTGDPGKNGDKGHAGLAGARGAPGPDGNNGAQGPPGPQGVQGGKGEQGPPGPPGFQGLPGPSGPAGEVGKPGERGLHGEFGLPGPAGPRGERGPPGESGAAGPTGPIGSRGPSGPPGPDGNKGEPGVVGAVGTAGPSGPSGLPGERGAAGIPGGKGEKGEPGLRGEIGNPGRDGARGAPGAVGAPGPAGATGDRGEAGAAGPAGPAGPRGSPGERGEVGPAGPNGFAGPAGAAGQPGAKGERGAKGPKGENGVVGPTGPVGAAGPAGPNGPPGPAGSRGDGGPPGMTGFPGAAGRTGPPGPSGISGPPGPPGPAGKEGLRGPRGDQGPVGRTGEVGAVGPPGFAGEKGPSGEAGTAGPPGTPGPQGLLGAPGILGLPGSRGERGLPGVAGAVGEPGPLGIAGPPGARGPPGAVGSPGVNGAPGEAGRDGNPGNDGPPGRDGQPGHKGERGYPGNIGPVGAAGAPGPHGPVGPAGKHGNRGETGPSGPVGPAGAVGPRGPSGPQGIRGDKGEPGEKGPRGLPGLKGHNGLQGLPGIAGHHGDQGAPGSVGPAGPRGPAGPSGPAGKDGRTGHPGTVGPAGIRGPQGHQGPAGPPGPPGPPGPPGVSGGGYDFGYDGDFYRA
Experiment: dried collagen assay
Bridge positions count the residues as written; N and C are the ends. Square brackets hold non-standard residues; d marks the D form. Ends that are not written are not given here.
% bound by entry:
experimental-readout: % bound

1. QWTCSGDEYT[dW]HCNYE (disulfide 4-13 (inferred); not fully specified (N-terminus); printed as QWTCSGDEYTwHCNYE) [SEQ ID NO 173]    5%
2. GWSCHSMDMQWHCDFS (disulfide 4-13 (inferred)) [SEQ ID NO 67]    5%
3. GQWTCSGDEYTAHCNYE (disulfide 5-14 (inferred); not fully specified (C-terminus)) [SEQ ID NO 147]    5%
4. QWTCSGDEYTW[dH]CNYE (disulfide 4-13 (inferred); not fully specified (N-terminus); printed as QWTCSGDEYTWhCNYE) [SEQ ID NO 174]    5%

Entry source: patent US20080044360A1
